Literature survey of Ki (system: Adenosine receptor A2a (Rattus norvegicus, UniProt P30543)).
Sequence (P30543 whole entry): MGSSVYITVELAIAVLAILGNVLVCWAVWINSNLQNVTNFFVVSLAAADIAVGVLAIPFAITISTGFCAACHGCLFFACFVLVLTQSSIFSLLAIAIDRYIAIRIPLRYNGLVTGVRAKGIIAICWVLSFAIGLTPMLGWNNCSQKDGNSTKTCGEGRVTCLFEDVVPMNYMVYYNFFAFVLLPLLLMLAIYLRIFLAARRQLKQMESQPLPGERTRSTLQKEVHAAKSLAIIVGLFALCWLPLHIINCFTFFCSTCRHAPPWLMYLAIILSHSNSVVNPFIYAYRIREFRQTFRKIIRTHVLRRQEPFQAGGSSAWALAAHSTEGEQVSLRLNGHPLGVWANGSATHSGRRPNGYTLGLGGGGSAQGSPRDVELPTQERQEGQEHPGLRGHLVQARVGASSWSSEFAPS
measured.endpoint: Ki (nM)

chemical.smiles	study.system	unit.text	numeric.result
CCOc1nc(N)c2ncn([C@@H]3O[C@H](CO)[C@@H](O)[C@H]3O)c2n1	Adenosine receptor A2a (Rattus norvegicus, UniProt P30543)	nM	1500
CC(C)(C)C(=O)Nc1nc2ccc(Cl)cc2c2nc(-c3ccco3)nn12	Adenosine receptor A2a (Rattus norvegicus, UniProt P30543)	nM	88.8
CCCCCCCCCCn1cc(-c2nc(N)c3ncn([C@@H]4O[C@H](CO)[C@@H](O)[C@H]4O)c3n2)cn1	Adenosine receptor A2a (Rattus norvegicus, UniProt P30543)	nM	6110
CCCn1c(=O)c2nc(-c3ccc(/C=C/C(=O)O)cc3)[nH]c2n(CCC)c1=O	Adenosine receptor A2a (Rattus norvegicus, UniProt P30543)	nM	800

A. CCCn1c(=O)c2[nH]c(-c3ccc(OCC(=O)O)cc3)nc2n(CCC)c1=S
B. CCNC[C@H]1O[C@@H](n2cnc3c(NC4CCCC4)ncnc32)[C@H](O)[C@@H]1O
Pick one, A or B : lowest reported Ki. Choose, then provide that item's label.
A

----------
Literature survey of pKi (system: UniProt P30543).
pKi: −log10 of the molar value.
measured.endpoint: pKi

Solved cases below.
compound	study.system	pKi
OC[C@H]1O[C@@H](n2cnc3c(NN4CCOCC4)nc(Cl)nc32)[C@H](O)[C@@H]1O	UniProt P30543	5.72
CCCC(Sc1nc(N)c2cnn(-c3ccccc3)c2n1)C(N)=O (stereo not given)	UniProt P30543	7.45
CCCCn1c(=O)c2c(nc3n2CCCN3c2ccc(OCCN3CCCC3)cc2)n(CCCC)c1=O	UniProt P30543	6.00
CSc1nc(NCc2cccc(I)c2)c2ncn(C[C@H](O)CO)c2n1	UniProt P30543	4.10

P. Cn1c(=O)c2c(nc3n2CCN(CCc2ccc(OCCN4CCCCC4)cc2)C3)n(C)c1=O
Q. CCCCC#Cc1nc(N)c2ncn([C@@H]3O[C@H](CSC(C)C)[C@@H](O)[C@H]3O)c2n1
R. CCCCC#Cc1nc(N)c2ncn([C@@H]3O[C@H](CSCC)[C@@H](O)[C@H]3O)c2n1
S. Nc1nc2c(cnn2CCCc2ccc(OCc3ccccc3)cc2)c2nc(-c3ccco3)nn12
Would you mind ranking these compounds by ascending pKi? Rank the items, then write their labels in that order.
P, Q, R, S

I. COCCOc1ccc(N2CCN(Cc3cccc(-c4cc5nc(-c6ccco6)nn5c(N)n4)c3)CC2)c(C)c1
II. CCNC(=O)[C@H]1O[C@@H](n2cnc3c(NC(=O)NCCc4ccccc4)ncnc32)[C@H](O)[C@@H]1O
III. CCCn1c(=O)[nH]c2[nH]c(-c3ccc(S(=O)(=O)NCCO)cc3)nc2c1=O
IV. CCCOC(=O)c1c(-c2ccccc2)nc(CC)c(C(=O)SCC(F)(F)F)c1CCC
Would you mind ranking these compounds by ascending pKi? Rank the items, then write their labels in that order.
IV, II, III, I

a. Cn1c(=O)c2c(nc(OCc3ccc(Cl)cc3)n2C)n(C)c1=O
b. CC(O)(C#Cc1cn2nc(-c3ccco3)nc2c(N)n1)c1csc2ccccc12 (stereo not given)
Exercise: compare a and b ; which one has the greater pKi? Choose, then provide that item's label.
b
(b: 7.48, a: 5.48)

P. CCCCCCc1nc(N)c2ncn([C@@H]3O[C@H](C(=O)NCC)[C@@H](O)[C@H]3O)c2n1
Q. C=CCn1c(=O)c2c(nc(-c3ccc(S(=O)(=O)O)cc3)n2C)n(C)c1=O
Exercise: compare P and Q ; which one has the greater pKi? Choose, then provide that item's label.
P
(P: 6.87, Q: 4.57)
